- Experiment Notes: Tanguay_ZF_120hpf_EYE_legacy: (Legacy) Oregon State University Tanguay Lab 120 Hour Post-fertilization zebrafish Assay for Eye Malformation (AID 2283636);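 further: binary presence or absence of eye malformation scored by brightfield in 120 hpf larvae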
Inconclusive results are not listed. The source made the active and inactive calls. How the source made its calls: active means hit-call score of the fitted dose curve at least 0.9, where 1 is the maximum; inconclusive means response in the unintended direction; inactive means score below 0.9.

{"Compound": "S=C([S-])NCCNC(=S)[S-].[Mn+2]", "outcome": "inactive"}
{"Compound": "CCC(C)OC(=O)N1CCCCC1CCO (configuration not stated)", "outcome": "inactive"}
{"Compound": "CCSC(=O)N(CC(C)C)CC(C)C", "outcome": "inactive"}
{"Compound": "c1ccc2[nH]c(-c3cscn3)nc2c1", "outcome": "inactive"}
{"Compound": "N#CSCSc1nc2ccccc2s1", "outcome": "inactive"}
{"Compound": "CCOC(=O)NCCOc1ccc(Oc2ccccc2)cc1", "outcome": "inactive"}
{"Compound": "CC1(C)C(C=C(Cl)Cl)C1C(=O)OCc1cccc(Oc2ccccc2)c1 (configuration not stated)", "outcome": "inactive"}

====

- Experiment Notes: STM_H9_NormalizedViability: Cytotoxicity Assessment at 120 hours in the Stemina devTOX quickPredict H9 human embryonic stem cell (hESC)-based Assay (AID 2283784)
Results filed as inconclusive are left out. Activity calls are given as the source filed them. The calls were made as follows: active = hit-call score of the fitted dose curve at least 0.9, where 1 is the maximum; inconclusive = response in the unintended direction; inactive = score below 0.9.
Outcomes: active, inactive

{"Molecule": "COC(=O)c1ccc(I)cc1S(=O)(=O)NC(=O)Nc1nc(C)nc(OC)n1", "Class": "inactive"}
{"Molecule": "N#CSCSc1nc2ccccc2s1", "Class": "active"}
{"Molecule": "CCSC(=O)N(CC(C)C)CC(C)C", "Class": "inactive"}
{"Molecule": "CCCCC(CC)COC(=O)c1ccccc1C(=O)O (stereo not drawn)", "Class": "inactive"}
{"Molecule": "CCCCOC(=O)[C@@H](C)Oc1ccc(Oc2ccc(C(F)(F)F)cn2)cc1", "Class": "active"}
{"Molecule": "CSC(=O)c1cccc2nnsc12", "Class": "inactive"}
{"Molecule": "COC(=O)c1ccccc1C(=O)O", "Class": "inactive"}
{"Molecule": "COC(=O)CSc1cc(N=c2sc(=O)n3n2CCCC3)c(F)cc1Cl", "Class": "active"}

====

- Read-out: Plasminogen activator inhibitor-1 (PAI1), SERPINE1 (gene 5054)
- Experiment Notes: BSK_BE3C_PAI1: BioMAP Diversity Plus: BE3C Assay for Plasminogen activator inhibitor-1 (PAI1) Biomarker Activity (AID 2283037)
- Run Parameters: primary human bronchial epithelial cells; actives raise or lower the signal
The source made the active and inactive calls. How the source made its calls: active means hit-call score of the fitted dose curve at least 0.9, where 1 is the maximum; inactive means score below 0.9.
Outcomes: class 1 = active, class 0 = inactive

{"Entry Smiles": "CCN(Cc1c(F)cccc1Cl)c1c([N+](=O)[O-])cc(C(F)(F)F)cc1[N+](=O)[O-]", "Class": "class 0"}
{"Entry Smiles": "CN(C)C(=O)Nc1ccc(Cl)c(Cl)c1", "Class": "class 0"}
{"Entry Smiles": "CCCN(CCC)c1c([N+](=O)[O-])cc(C(F)(F)F)c(N)c1[N+](=O)[O-]", "Class": "class 1"}
{"Entry Smiles": "COC(=O)c1c(Cl)nn(C)c1S(=O)(=O)NC(=O)Nc1nc(OC)cc(OC)n1", "Class": "class 0"}
{"Entry Smiles": "COc1nc(C)nc(NC(=O)NS(=O)(=O)c2ccccc2OCCCl)n1", "Class": "class 0"}
{"Entry Smiles": "CSC(=O)c1cccc2nnsc12", "Class": "class 0"}
{"Entry Smiles": "COCCO", "Class": "class 0"}
{"Entry Smiles": "CC(=O)S[C@@H]1CC2=CC(=O)CC[C@]2(C)[C@H]2CC[C@@]3(C)[C@@H](CC[C@@]34CCC(=O)O4)[C@H]12", "Class": "class 0"}

====

- Read-out: Pro-epidermal growth factor (Homo sapiens) (UniProt P01133)
- Experiment Notes: LTEA_HepaRG_EGF: Life Technologies and Expression Analysis (LTEA) Assay for Epidermal growth factor (EGF) using HepaRG (AID 2283489)
- Run Parameters: mRNA level, 48 h; actives raise or lower the signal
Activity calls are given as the source filed them. Rule for the calls: active = hit-call score of the fitted dose curve at least 0.9, where 1 is the maximum; inactive = score below 0.9.
Parameter: outcome

{"Compound": "CCOC(=O)C(C)Oc1ccc(Oc2nc3ccc(Cl)cc3o2)cc1 (stereo not drawn)", "Parameter": "outcome", "Experimental Value": "inactive"}
{"Compound": "c1ccc(Nc2ccccc2)cc1", "Parameter": "outcome", "Experimental Value": "inactive"}
{"Compound": "C#CCOC(=O)[C@@H](C)Oc1ccc(Oc2ncc(Cl)cc2F)cc1", "Parameter": "outcome", "Experimental Value": "inactive"}

====

- Read-out: sulfotransferase 2A1 (SULT2A1), SULT2A1 (gene 6822)
- Experiment Notes: LTEA_HepaRG_SULT2A1: Life Technologies and Expression Analysis (LTEA) Assay for sulfotransferase 2A1 (SULT2A1) using HepaRG (AID 2283531)
- Run Parameters: mRNA level, 48 h; actives raise or lower the signal
The source made the active and inactive calls. Rule for the calls: active = hit-call score of the fitted dose curve at least 0.9, where 1 is the maximum; inactive = score below 0.9.
Outcomes: active, inactive

{"Compound": "COc1c(Cl)ccc(Cl)c1C(=O)O", "Class": "inactive"}
{"Compound": "C=CCOC(Cn1ccnc1)c1ccc(Cl)cc1Cl (stereo unspecified)", "Class": "active"}
{"Compound": "COCCO", "Class": "inactive"}
{"Compound": "COC(=O)c1ccc(I)cc1S(=O)(=O)NC(=O)Nc1nc(C)nc(OC)n1", "Class": "inactive"}
{"Compound": "N[C@@H](Cc1cc(I)c(Oc2ccc(O)c(I)c2)c(I)c1)C(=O)O", "Class": "active"}
{"Compound": "O=C(c1ccccc1)C1CCCCC1", "Class": "inactive"}
{"Compound": "CCCCOC(=O)[C@@H](C)Oc1ccc(Oc2ccc(C(F)(F)F)cn2)cc1", "Class": "inactive"}
{"Compound": "CC(=O)S[C@@H]1CC2=CC(=O)CC[C@]2(C)[C@H]2CC[C@@]3(C)[C@@H](CC[C@@]34CCC(=O)O4)[C@H]12", "Class": "active"}
{"Compound": "OB(O)O", "Class": "inactive"}
{"Compound": "CC(=O)[C@H]1CC[C@H]2[C@@H]3CCC4=CC(=O)CC[C@]4(C)[C@H]3CC[C@]12C", "Class": "active"}
{"Compound": "CCN(Cc1c(F)cccc1Cl)c1c([N+](=O)[O-])cc(C(F)(F)F)cc1[N+](=O)[O-]", "Class": "inactive"}

====

- Read-out: Macrophage colony-stimulating factor (MCSF), CSF1 (gene 1435)
- Experiment Notes: BSK_LPS_MCSF: BioMAP Diversity Plus: LPS Assay for Macrophage colony-stimulating factor (MCSF) Biomarker Activity (AID 2283083)
- Run Parameters: primary human HUVEC with PBMC; actives raise or lower the signal
Active and inactive are the calls of the source. The calls were made as follows: active = hit-call score of the fitted dose curve at least 0.9, where 1 is the maximum; inactive = score below 0.9.
Outcomes: true (1) (active), false (0) (inactive)

{"Molecule": "O=C(O)C1(C(=O)Nc2ccc(Cl)cc2Cl)CC1", "Class": "false (0)"}
{"Molecule": "CCCCC(CC)CN1C(=O)C2C3C=CC(C3)C2C1=O (configuration not stated)", "Class": "true (1)"}
{"Molecule": "CC(C)(c1ccc(O)cc1)c1ccc(O)cc1", "Class": "false (0)"}
{"Molecule": "CC(=O)[C@H]1CC[C@H]2[C@@H]3CCC4=CC(=O)CC[C@]4(C)[C@H]3CC[C@]12C", "Class": "false (0)"}
{"Molecule": "COC(=O)c1ccc(I)cc1S(=O)(=O)NC(=O)Nc1nc(C)nc(OC)n1", "Class": "false (0)"}
{"Molecule": "CCOC(=O)NCCOc1ccc(Oc2ccccc2)cc1", "Class": "true (1)"}
{"Molecule": "CCCCOCCOCCOCc1cc2c(cc1CCC)OCO2", "Class": "false (0)"}
{"Molecule": "CC1(C)C(C=C(Cl)Cl)C1C(=O)OCc1cccc(Oc2ccccc2)c1 (configuration not stated)", "Class": "true (1)"}
{"Molecule": "CCOC(=O)c1ccc(O)cc1", "Class": "false (0)"}
{"Molecule": "CC(C)CCCCCCc1ccc(O)cc1", "Class": "true (1)"}
{"Molecule": "COc1nc(C)nc(NC(=O)NS(=O)(=O)c2ccccc2OCCCl)n1", "Class": "false (0)"}
{"Molecule": "O=C(Nc1ccc([N+](=O)[O-])cc1Cl)c1cc(Cl)ccc1O", "Class": "true (1)"}

====

- Experiment Notes: CCTE_Shafer_MEA_acute_spike_number: CCTE's Neural Acute Assay for Total Number of Spikes, Shafer Lab (AID 2284008)
Activity calls are given as the source filed them. The calls were made as follows: active = hit-call score of the fitted dose curve at least 0.9, where 1 is the maximum; inactive = score below 0.9.
Outcomes: TRUE for active, FALSE for inactive

{"Compound": "CCCCC(CC)CN1C(=O)C2C3C=CC(C3)C2C1=O (stereo not given)", "Class": "TRUE"}
{"Compound": "CSC(=O)c1cccc2nnsc12", "Class": "FALSE"}
{"Compound": "C=CCOC(Cn1ccnc1)c1ccc(Cl)cc1Cl (stereo not given)", "Class": "TRUE"}
{"Compound": "O=C(c1ccc(O)cc1O)c1ccc(O)cc1O", "Class": "FALSE"}
{"Compound": "O=C(c1ccccc1)C1CCCCC1", "Class": "FALSE"}
